Experiment Summary: Solubility of isoflavone phosphate conjugates and aglycones in DI water (25° C.)
Assay type: physicochemical
Particulars: 25 °C, water
Endpoint: solubility (µg/mL)
The reply should be a number in µg/mL, with the unit left off.

Reported solubility of O=c1c(-c2ccc(O)cc2)coc2cc(O)ccc12 : 1.36
